Overview of reported growth across a group of compounds:
# Tested on: CAKI-1 renal
# assay text: NCI-60 one-dose screen, 48 h (100 = growth as untreated, 0 = no growth, -100 = all killed)
# experimental context: 10 µM
About 83,000 compounds went through this panel and 20% of them were active in at least one assay; those are over-represented in the sample as a whole.
Respond numerically; units are % and should not be typed.

Reference set, count: 5
compound	recorded result
O=C(N/N=C/c1ccc(Cl)cc1)c1ccccc1Nc1cccc(C(F)(F)F)c1	86
COc1ccc(/C(=N\N)C(=O)c2ccccc2)cc1 (tested in a mixture with another compound)	90.8
COc1ccc(-c2csc(NC(=O)c3ccc(Cc4n[nH]c(=O)c5cccnc45)cc3)n2)cc1	84.5
CC(C)Cc1ccc([C@H](C)C(=O)O)cc1	93.7
Cc1c2cnccc2c(C)c2c1oc1ccccc12	66

Param item = COc1ccc2nc3cc(Cl)ccc3c(N)c2c1 ; retrieve measured growth.
-55.6

State the recorded growth for this entry: COc1cc2c3c(n(C4CCN(C)CC4)c(=O)c2cc1OC)-c1cc2c(cc1C3=O)OCO2
75.6

What does the record list as growth for OC[C@H]1OC([S-])[C@H](O)[C@@H](O)[C@@H]1O.[Au+] (stereo partly drawn) ?
108

What value of growth has been recorded for this entry: O=[N+]([O-])c1ccc(/C(=C/c2ccccc2)[n+]2ccccc2)cc1
111

Fill in: growth of CN1C(=O)C2(Nc3cc(Cl)ccc3S2)c2cc(Cl)ccc21 (stereo not drawn) is ___
82.2

Please report the recorded growth for Cn1c2ccccc2c2c3[nH][nH]c(=O)c3c3c4ccccc4[nH]c3c21 .
60.2

###

# Test system: M14 melanoma
# assay text: NCI-60 one-dose screen, 48 h (100 = growth as untreated, 0 = no growth, -100 = all killed)
# experimental context: 10 µM
About 83,000 compounds went through this panel and 20% of them were active in at least one assay; those are over-represented in the sample as a whole.
Please enter met where growth is greater than or equal to 90%, and not met where it is lower.

Worked examples follow.
> print(dat)
                                   molecule    label
1    CCn1c(SC/C(=N/O)c2ccccc2)nnc1-c1ccccc1      met
2  COc1cc2nc(SCC(=O)Nc3cc(OC)c(OC)c(OC)c3)n(Cc3ccccc3)c(=O)c2cc1OC  not met
3  N#CC1=C(N)Oc2cc(N)ccc2C1c1cccnc1 (stereo not given)  not met

Record COc1ccc(-c2nnc(SCC(=O)Nc3ccc(C(=O)/C=C/c4ccccc4)cc3)n2-c2ccccc2)cc1OC ; criterion: growth no lower than 90%. Met?
not met

Assess whether reported growth for CCn1cc(CNc2ccc(C(=O)Nc3ccc4ccccc4c3)cc2)c(C)n1 sits at 90% or higher.
not met

###

# Test system: CCRF-CEM leukemia
# assay text: NCI-60 one-dose screen, 48 h (100 = growth as untreated, 0 = no growth, -100 = all killed)
# experimental context: 10 µM
About 83,000 compounds went through this panel and 20% of them were active in at least one assay; those are over-represented in the sample as a whole.
Is growth at least 70%? Then Yes. If not, No.

Some solved cases for reference:
> print(dat)
                                   compound      system.tested  label
1                  NC1=CC(=O)C(=O)c2cccnc21  CCRF-CEM leukemia    Yes
2  S=C(SSC(=S)N(c1ccccc1)c1ccccc1)N(c1ccccc1)c1ccccc1  CCRF-CEM leukemia    Yes
3  CC(=O)OC1CC2C(C)(C)CCC[C@]2(C)C2=C1C(O)=C(C(C)C)C(=O)C2=O (stereo not given in full)  CCRF-CEM leukemia     No
4  CCN(CC)CCNc1ccc(C)c2sc3cc(Cl)ccc3c(=O)c12  CCRF-CEM leukemia     No
5  COc1cccc(C2C(C#N)=C(N)Oc3cc(N)ccc32)c1 (stereo not given)  CCRF-CEM leukemia     No
6  O=S(=O)(Oc1ccc(-c2ccc3sccc3c2)cc1)c1ccccc1  CCRF-CEM leukemia    Yes
7          O=C1c2ccccc2C(=O)N1CCCCNc1ccccc1  CCRF-CEM leukemia     No
8              CCC(CC)n1c(C)cc(=O)n1C(CC)CC  CCRF-CEM leukemia    Yes

Can CCOC(=O)c1cc(C(=O)c2ccc(F)cc2F)n2ccccc12 be said to have growth at or above 70%?
Yes

Identify whether the reported growth of the following compound is 70% or greater: CN1CCN(CCC(=O)Nc2cccc(-n3cc(-c4ccncc4)c(-c4ccc(Cl)c(O)c4)n3)c2)CC1
No

growth >= 70% for Cc1ccc(NCCNCC(C)(C)O)c2c(=O)c3ccc(Cl)cc3sc12 ?
No

Reported growth reaches at least 70% for COc1cc(/C=C/c2cc(/C=C/c3ccc(O)c(OC)c3)n(C(=O)Nc3ccccc3Cl)n2)ccc1O ?
No

Identify whether the reported growth of the following compound is 70% or greater: COc1cccc2ccc(CC(O)(c3ccccc3)c3ccccc3)nc12
Yes

I'd appreciate it if you could say whether C[C@H]1[C@H](OC(=O)CCC(=O)O)O[C@@H]2O[C@]3(C)CC[C@H]4[C@H](C)CC[C@@H]1[C@@]24OO3 has growth at least equal to 70%.
No

Answer whether growth of COc1cc(-c2nn(-c3cccc(NC(=O)NCCNC(=O)c4cccc(C(F)(F)F)c4)c3)cc2-c2ccncc2)ccc1Cl is greater than or equal to 70%.
No

Dear colleague, could you confirm whether CNS(=O)(=O)Oc1ccc(-c2sc3cc(OS(=O)(=O)NC)ccc3c2C(=O)c2ccc(OCCN3CCCCC3)cc2)cc1 has growth at or above 70%?
No

###

# Test system: MALME-3M melanoma
# assay text: NCI-60 one-dose screen, 48 h (100 = growth as untreated, 0 = no growth, -100 = all killed)
# experimental context: 10 µM
This is part of a sample that, as a whole, favours compounds with a hit. Of some 83,000 tested, about 20% had one in any assay.
Binary call on growth: MET from 80% upward, NOT MET beneath that.

Illustrative cases are given below, each with its answer.
> print(dat)
                                   compound    label
1  Cn1cnc([N+](=O)[O-])c1/C=C1\Oc2ccc(Br)cc2C1=O      MET
2  O=C(COc1cccc(/C=C2\CSc3ccccc3C2=O)c1)c1ccc(Cl)cc1  NOT MET
3  C=C1CCC2(C#N)[C@H]3[C@H](CC[C@@H]2C)[C@@H](C)C[C@@H](CC(C)(C)NC(=O)CN2CCC2=O)[C@H]13 (some centres undefined)      MET

For this compound, is measured growth 80% or higher? c1ccc2c(c1)Cc1ccccc1N2CCN1CCCCC1
MET

# bool: growth of CC(C)(C)OC(=O)N1CCc2c(sc3ncnc(N/N=C/c4cccc(Br)c4)c23)C1 >= 80%
NOT MET

###

# System: UO-31 renal
# assay text: NCI-60 one-dose screen, 48 h
# experimental context: 10 µM
This is part of a sample that, as a whole, favours compounds with a hit. Of some 83,000 tested, about 20% had one in any assay. Activity calls are given as the source filed them. How the source made its calls: active means growth percent below 10; inactive means the rest.
Give your call using only these classes: true = active, false = inactive

Some solved entries appear below for comparison.
> print(dat)
                           structure.string  label
1  O=C(/C=C/C=C/c1c(C2CC2)nc2ccccc2c1-c1ccc(F)cc1)c1cccs1   true
2  O=C(NCCCNS(=O)(=O)c1ccc(Cl)cc1)Nc1ccc(-n2cc(-c3ccncc3)c(-c3ccc(Cl)c(O)c3)n2)cc1  false
3  COc1cc(/C=C/c2cc(/C=C/c3ccc(O)c(OC)c3)n(C(=O)Nc3ccccc3Cl)n2)ccc1O   true
4     O=C(Nc1ccccc1)Nc1ncnc2c1ncn2-c1ccccc1  false
5  CC(C)(C)c1ccc(S(=O)(=O)Oc2ccc(NC(=O)C3CCCCC3)cc2)cc1  false

Entry Cc1noc(C)c1CSc1ccccc1C(=O)N1CCN(c2cccc(C(F)(F)F)c2)CC1 : call = ?
false

Kindly provide the recorded test outcome for the following molecule: CS(=O)(=O)c1nccc(-c2c(-c3cccc(OCCc4ccccc4)c3)nc3sccn23)n1
false

Can you look up the reported call for Cc1cn(-c2cccc(NC(=O)c3ccc(C)c(Nc4nccc(-c5cccnc5)n4)c3)c2)cn1 for me?
true

Test call, this molecule: CNS(=O)(=O)Oc1ccc(-c2sc3cc(OS(=O)(=O)NC)ccc3c2C(=O)c2ccc(OCCN3CCCCC3)cc2)cc1
false

###

# Tested on: UACC-257 melanoma
# assay text: NCI-60 one-dose screen, 48 h (100 = growth as untreated, 0 = no growth, -100 = all killed)
# experimental context: 10 µM
The panel holds about 83,000 compounds, 20% with a hit somewhere; the sample as a whole holds those more often. Activity calls are given as the source filed them. How the source made its calls: active means growth percent below 10; inactive means the rest.
assay endpoint: growth

The examples below pair each entry with its known result.
> print(dat)
                                   molecule      system.tested   recorded.result
1  O=C1c2ccccc2C(=O)c2c1ccc(C(Br)Br)c2[N+](=O)[O-]  UACC-257 melanoma  95.2% (inactive)
2  CC(=O)[C@@]12O[C@](C)(c3ccccc3)O[C@@H]1CC1C3CCC4=CC(=O)CC[C@]4(C)C3CC[C@@]12C (stereo not given in full)  UACC-257 melanoma  73.2% (inactive)
3  COc1ccc(-c2n[nH]nc2-c2cc(OC)c(OC)c(OC)c2)cc1  UACC-257 melanoma  69.1% (inactive)
4     CSc1nc(S(C)(=O)=O)nc2[nH]c(=O)[nH]c12  UACC-257 melanoma   105% (inactive)

Given the molecule COc1cc2c(Nc3ccc(S(N)(=O)=O)cc3)ncnc2c(OC)c1OC , what is its reported growth?
94.9% (inactive)

Fill in: growth of COc1cc(-c2nn(-c3ccc(NC(=O)NCCNS(=O)(=O)c4ccc(F)cc4)cc3)cc2-c2ccncc2)ccc1Cl is ___
41.2% (inactive)

// returns reported growth for input Nc1nc(-c2ccc(Cl)cc2)cc(-c2cc3ccccc3oc2=O)n1
132% (inactive)

Dear colleague, I am looking for the recorded growth of the following molecule: O=C1c2c(c(=O)[nH]c3ccccc23)CCN1Cc1ccccc1
104% (inactive)

Looking for the measured growth of CC(=O)OC1C=CC(OC(C)=O)O1 (stereo not given) , can you help?
94% (inactive)
